In this section, each of the compounds is paired with its reported residual activity.
system-name: Calcium/calmodulin-dependent protein kinase type II subunit delta (Homo sapiens)
measurement-context: at 10 µM

compound	system-name	meas-value
N#C/C(=C1/Nc2ccccc2S1)c1ccnc(NCCc2cccnc2)n1	Calcium/calmodulin-dependent protein kinase type II subunit delta (Homo sapiens)	24%
Nc1ncnc2c1c(-c1ccc(Oc3ccccc3)cc1)cn2C1CCCC1	Calcium/calmodulin-dependent protein kinase type II subunit delta (Homo sapiens)	68%
O=C1Cc2c([nH]c3ccc(Br)cc23)-c2ccccc2N1	Calcium/calmodulin-dependent protein kinase type II subunit delta (Homo sapiens)	16%
O=C1C(Cl)=C(N2C(=O)CCC2=O)C(=O)c2ccccc21	Calcium/calmodulin-dependent protein kinase type II subunit delta (Homo sapiens)	99%
Nc1ncnc2c1cnn2-c1ccccc1	Calcium/calmodulin-dependent protein kinase type II subunit delta (Homo sapiens)	63%

Ask: Entry under review: CCCCc1c(-c2ccc(OC)cc2)[nH]c2nccnc12 . Reported residual activity?
Reply: 42%

Ask: Which residual activity value belongs to CCN(CC)CCNC(=O)c1c(C)[nH]c(/C=C2\C(=O)Nc3ccc(Cl)cc32)c1C ?
Reply: 1%

Ask: Suppose we examine the compound O=C1NC(=O)C(c2cn(CCCn3ccnc3)c3ccccc23)=C1Nc1ccccc1 ; what residual activity value has been reported?
Reply: 23%

Ask: Which residual activity reading was recorded for the compound CCCC(=O)Oc1ccc2[nH]c(C(=O)c3cc4ccccc4[nH]3)cc2c1 ?
Reply: 83%

----------
system-name: Serine/threonine-protein kinase Chk1 (Homo sapiens) (UniProt O14757)
Sequence (whole entry): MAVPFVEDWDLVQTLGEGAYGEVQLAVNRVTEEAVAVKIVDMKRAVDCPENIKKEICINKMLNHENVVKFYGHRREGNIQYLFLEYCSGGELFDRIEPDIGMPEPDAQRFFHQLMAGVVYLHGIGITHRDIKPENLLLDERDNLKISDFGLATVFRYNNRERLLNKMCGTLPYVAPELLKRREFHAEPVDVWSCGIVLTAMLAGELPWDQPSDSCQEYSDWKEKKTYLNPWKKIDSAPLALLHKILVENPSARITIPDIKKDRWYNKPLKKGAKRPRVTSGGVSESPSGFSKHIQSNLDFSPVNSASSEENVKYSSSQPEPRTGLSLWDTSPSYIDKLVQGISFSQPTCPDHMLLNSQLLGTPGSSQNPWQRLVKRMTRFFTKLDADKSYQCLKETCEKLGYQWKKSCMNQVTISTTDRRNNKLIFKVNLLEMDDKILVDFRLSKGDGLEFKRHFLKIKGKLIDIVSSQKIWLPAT
measurement-context: at 10 µM
Entries and their residual activity
Output spec: scalar in %, unitless text.

Example cases with answers are listed next.
structure-string	readout-units	meas-value
CCN(CC)CCNC(=O)c1c(C)[nH]c(/C=C2\C(=O)Nc3ccc(Cl)cc32)c1C	%	3
NC(=O)c1cccc(-c2cc(Nc3ccc(OC(F)(F)F)cc3)ncn2)c1	%	96
O=C(c1cc2cc(O)ccc2[nH]1)c1cc2cc(O)ccc2[nH]1	%	47
O=C1Nc2ccc(Cl)cc2/C1=C/c1cc(Cl)c(O)c(Cl)c1	%	64

Next item in the queue.
Ask: Which value of residual activity has been reported for Oc1cccc(-c2nc(N3CCOCC3)c3oc4ncccc4c3n2)c1 in the records?
Reply: 100

----------
system-name: Calcium/calmodulin-dependent protein kinase type 1 (Homo sapiens)
measurement-context: at 10 µM
Label t for high-side residual activity (at or above 60%) and f for low-side residual activity (below it).

Ask: Item O=C(O)/C=C/c1cc(Br)c(Br)c(Br)c1Br with residual activity of 60% or above?
Reply: t

----------
system-name: Ephrin type-A receptor 7 (Homo sapiens)
measurement-context: at 1 µM
assay-readout: residual activity (%)
State just the number; it will be interpreted in %.

// worked examples, residual activity included
structure-string	system-name	residual activity [%]
Cn1c2ccccc2c2c3c(c4c5ccccc5n(CCC#N)c4c21)CNC3=O	Ephrin type-A receptor 7 (Homo sapiens)	43
c1ccc(-c2cnc(Nc3ccc(OCCN4CCCC4)cc3)s2)cc1	Ephrin type-A receptor 7 (Homo sapiens)	104
O=c1cc(N2CCOCC2)oc2c1ccc1ccccc12	Ephrin type-A receptor 7 (Homo sapiens)	103

Ask: Observed residual activity on Ephrin type-A receptor 7 (Homo sapiens) for O=C1Nc2ccc(Cl)cc2/C1=C/c1cc(Cl)c(O)c(Cl)c1 , please.
Reply: 92

Ask: GET /values?readout=residual activity&system=Ephrin type-A receptor 7 (Homo sapiens)&item= O=C(c1cc2cc(O)ccc2[nH]1)c1cc2cc(O)ccc2[nH]1
Reply: 83

Ask: Recorded residual activity for Cn1sc(=O)n(Cc2ccccc2)c1=O with Ephrin type-A receptor 7 (Homo sapiens), please?
Reply: 86

----------
system-name: Tyrosine-protein kinase HCK (Homo sapiens) (UniProt P08631)
Sequence (P08631 2-526 limits assumed): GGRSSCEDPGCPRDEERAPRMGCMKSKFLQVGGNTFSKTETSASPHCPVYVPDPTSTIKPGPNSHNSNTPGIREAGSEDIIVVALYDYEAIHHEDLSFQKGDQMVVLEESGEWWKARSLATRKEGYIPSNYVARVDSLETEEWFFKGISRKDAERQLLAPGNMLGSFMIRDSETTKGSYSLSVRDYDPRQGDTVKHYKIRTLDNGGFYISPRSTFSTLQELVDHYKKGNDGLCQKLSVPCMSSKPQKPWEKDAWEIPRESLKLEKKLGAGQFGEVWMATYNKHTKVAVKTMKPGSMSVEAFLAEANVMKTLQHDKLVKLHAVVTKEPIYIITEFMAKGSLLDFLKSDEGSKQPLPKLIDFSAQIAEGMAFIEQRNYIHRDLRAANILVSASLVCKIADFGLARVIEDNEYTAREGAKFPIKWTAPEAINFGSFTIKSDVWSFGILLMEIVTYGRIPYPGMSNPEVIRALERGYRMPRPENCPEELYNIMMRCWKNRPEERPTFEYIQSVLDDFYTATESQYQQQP
measurement-context: at 10 µM
Listed below: residual activity values for each entry.
Please respond with the number in % and leave the unit unwritten.

structure-string	readout-units	meas-value
COc1ccc2c(c1)c(C1=C(c3c[nH]c4ccccc34)C(=O)NC1=O)cn2CCCN(C)C	%	72
COc1cc2ncnc(Nc3cccc(Cl)c3)c2cc1OC	%	4
CCCCc1c(-c2ccc(OC)cc2)[nH]c2nccnc12	%	81

Ask: Form field: reported residual activity of NC(=O)Nc1sc(-c2ccc(F)cc2)cc1C(N)=O
Reply: 7

Ask: Fill in: residual activity of O=C(CCCc1ccc(-c2ccccc2F)cc1)Nc1ccc(O)cc1 is ___
Reply: 89

Ask: Quick check: residual activity of COc1cc2nccc(Oc3ccc(NC(=S)NC(=O)c4ccccc4C)cc3)c2cc1OC ?
Reply: 3

----------
system-name: Tyrosine-protein kinase Fyn (Homo sapiens) (UniProt P06241)
Sequence (P06241 2-537 limits assumed): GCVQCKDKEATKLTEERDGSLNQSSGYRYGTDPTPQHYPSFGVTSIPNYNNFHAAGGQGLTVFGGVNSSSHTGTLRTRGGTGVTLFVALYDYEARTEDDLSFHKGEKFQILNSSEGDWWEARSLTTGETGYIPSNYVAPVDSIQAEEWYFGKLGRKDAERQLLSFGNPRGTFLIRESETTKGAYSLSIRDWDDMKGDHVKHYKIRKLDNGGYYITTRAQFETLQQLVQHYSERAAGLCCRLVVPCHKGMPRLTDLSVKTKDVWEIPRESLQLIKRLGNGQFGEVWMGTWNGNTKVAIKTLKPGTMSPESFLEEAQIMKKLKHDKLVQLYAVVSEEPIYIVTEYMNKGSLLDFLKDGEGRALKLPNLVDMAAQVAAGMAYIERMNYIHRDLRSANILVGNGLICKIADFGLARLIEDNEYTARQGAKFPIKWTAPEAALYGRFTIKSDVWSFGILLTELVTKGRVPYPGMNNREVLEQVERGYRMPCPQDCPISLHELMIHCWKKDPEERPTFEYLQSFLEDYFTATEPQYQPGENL
measurement-context: at 10 µM
Threshold check on residual activity: strictly below 70% is 1; on or above 70% is -1.

Worked set:
compound	system-name	class-name
O=S(=O)(NCCNC/C=C/c1ccc(Br)cc1)c1cccc2cnccc12	Tyrosine-protein kinase Fyn (Homo sapiens) (UniProt P06241)	1
Cn1sc(=O)n(Cc2ccccc2)c1=O	Tyrosine-protein kinase Fyn (Homo sapiens) (UniProt P06241)	-1
NC(=O)c1ccc(-c2nc(-c3ccc4c(c3)OCCO4)c(-c3ccccn3)[nH]2)cc1	Tyrosine-protein kinase Fyn (Homo sapiens) (UniProt P06241)	-1
CC(C)c1nn(-c2c(Cl)cccc2Cl)c2nc(Cc3ccc(OCCO)cc3)[nH]c(=O)c12	Tyrosine-protein kinase Fyn (Homo sapiens) (UniProt P06241)	-1
NC(=O)c1cccc(-c2cc(Nc3ccc(OC(F)(F)F)cc3)ncn2)c1	Tyrosine-protein kinase Fyn (Homo sapiens) (UniProt P06241)	-1
Nc1n[nH]c2nc3ccccc3nc12	Tyrosine-protein kinase Fyn (Homo sapiens) (UniProt P06241)	-1

Ask: Lab log: compare recorded residual activity with 70%; is it strictly lower for O=C(NC(NC(=S)Nc1ccc(F)c([N+](=O)[O-])c1)C(Cl)(Cl)Cl)C(c1ccccc1)c1ccccc1 (stereo not given) ?
Reply: 1

Ask: Strictly below 70%: is that where residual activity of Cn1c2ccccc2c2c3c(c4c5ccccc5n(CCC#N)c4c21)CNC3=O sits?
Reply: 1

Ask: Is residual activity strictly under 70% for the entry COc1cc2nccc(Oc3ccc(NC(=O)Nc4cc(C)on4)c(Cl)c3)c2cc1OC ?
Reply: 1

----------
system-name: ALK tyrosine kinase receptor (Homo sapiens)
measurement-context: at 10 µM
Field: class. Source value: residual activity. Ranges: low group = under 50%, middle group = from 50% up to 70%, high group = 70% and over

Previously resolved entries follow.
molecule	class-name
O=c1c(-c2ccc(F)cc2)c(-c2ccncc2)[nH]n1-c1ccc(Cl)cc1	middle group
CSc1nc(-c2ccc(F)cc2)c(-c2ccnc(NC(C)c3ccccc3)c2)[nH]1 (stereo unspecified)	middle group
O=C1C(Cl)=C(N2C(=O)CCC2=O)C(=O)c2ccccc21	middle group
O=C(Nc1nc2ccccc2n1CCN1CCOCC1)c1cccc([N+](=O)[O-])c1	high group
Nc1nc(Nc2ccc(S(N)(=O)=O)cc2)nn1C(=O)c1c(F)cccc1F	low group
CCCCc1c(-c2ccc(O)cc2)[nH]c2nccnc12	low group
Nc1ncnc2[nH]nc(Nc3ccc(F)cc3)c12	middle group

Let us examine a further case.
Ask: Which category fits this record: O=C(NC(NC(=S)Nc1ccc(F)c([N+](=O)[O-])c1)C(Cl)(Cl)Cl)C(c1ccccc1)c1ccccc1 (stereo unspecified)
Reply: high group

----------
system-name: Serine/threonine-protein kinase 4 (Homo sapiens)
Sequence (whole entry): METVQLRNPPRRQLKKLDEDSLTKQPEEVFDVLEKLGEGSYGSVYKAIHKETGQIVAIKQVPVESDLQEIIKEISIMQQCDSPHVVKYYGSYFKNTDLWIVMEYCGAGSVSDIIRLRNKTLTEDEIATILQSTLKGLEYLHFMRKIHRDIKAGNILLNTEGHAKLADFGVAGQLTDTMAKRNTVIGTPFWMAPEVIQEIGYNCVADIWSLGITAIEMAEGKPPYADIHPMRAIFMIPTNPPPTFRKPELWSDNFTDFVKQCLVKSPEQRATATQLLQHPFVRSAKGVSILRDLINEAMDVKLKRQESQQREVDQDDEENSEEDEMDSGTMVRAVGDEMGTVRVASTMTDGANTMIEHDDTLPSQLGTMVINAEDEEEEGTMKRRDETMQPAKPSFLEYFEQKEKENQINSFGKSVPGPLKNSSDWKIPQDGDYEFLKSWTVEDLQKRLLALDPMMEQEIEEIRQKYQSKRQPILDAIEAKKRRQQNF
measurement-context: at 1 µM
Measured residual activity accompanies every entry in the list below.
Please state the number and follow it with the unit.

A selection of reference data follows.
molecule	residual activity
O=C(CCCc1ccc(-c2ccccc2F)cc1)Nc1ccc(O)cc1	80%
O=C(c1ccccc1)c1ccc(N2CCOCC2)cc1O	111%

Now consider a different molecule.
Ask: Value lookup for residual activity; key = CC(C)(C)c1nc2c3ccc(F)cc3c3c(=O)[nH]ccc3c2[nH]1
Reply: 8%
